All values here come from paper PMC6820788.

compounds and their reported Kd
SYSTEM_TESTED: MFN1IM (Homo sapiens, UniProt Q8IWA4, DEL365-694)
Construct: internally truncated (residues 365-694 removed, G domain + HD1); E. coli; His6 cut by PreScission
Sequence (Q8IWA4 1-364, stated change not applied): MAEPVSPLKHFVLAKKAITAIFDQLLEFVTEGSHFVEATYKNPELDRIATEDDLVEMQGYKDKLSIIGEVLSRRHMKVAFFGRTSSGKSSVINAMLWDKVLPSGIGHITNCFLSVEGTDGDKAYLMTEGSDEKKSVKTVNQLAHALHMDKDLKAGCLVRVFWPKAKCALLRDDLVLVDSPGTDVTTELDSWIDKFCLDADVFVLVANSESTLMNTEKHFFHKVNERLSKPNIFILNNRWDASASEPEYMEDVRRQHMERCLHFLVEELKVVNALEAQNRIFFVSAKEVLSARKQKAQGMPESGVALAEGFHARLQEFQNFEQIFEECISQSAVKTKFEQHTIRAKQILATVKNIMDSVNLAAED
Sequence (Q8IWA4 695-741, stated change not applied): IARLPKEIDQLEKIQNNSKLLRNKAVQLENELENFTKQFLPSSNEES
ASSAY: ITC
Field format: number, assumed µM, no unit text.

{"columns": ["CPD_SMILES", "EXPERIMENTAL_READOUT", "READOUT_UNIT", "REPORTED_MEASUREMENT"],
 "data": [
  ["Nc1nc2c(ncn2[C@@H]2O[C@H](COP(=O)(O)OP(=O)(O)O)[C@@H](O)[C@H]2O)c(=O)[nH]1", "Kd", "µM", 217]
]}

Note: attention shifts to another entry.
Query :: Please look up its Kd: Nc1nc2c(ncn2[C@@H]2O[C@H](COP(=O)(O)OP(=O)(O)OP(O)(O)=S)[C@@H](O)[C@H]2O)c(=O)[nH]1
Result :: 83
